Target: Beta-secretase 1 (Homo sapiens, UniProt P56817)
Sequence (P56817 whole entry): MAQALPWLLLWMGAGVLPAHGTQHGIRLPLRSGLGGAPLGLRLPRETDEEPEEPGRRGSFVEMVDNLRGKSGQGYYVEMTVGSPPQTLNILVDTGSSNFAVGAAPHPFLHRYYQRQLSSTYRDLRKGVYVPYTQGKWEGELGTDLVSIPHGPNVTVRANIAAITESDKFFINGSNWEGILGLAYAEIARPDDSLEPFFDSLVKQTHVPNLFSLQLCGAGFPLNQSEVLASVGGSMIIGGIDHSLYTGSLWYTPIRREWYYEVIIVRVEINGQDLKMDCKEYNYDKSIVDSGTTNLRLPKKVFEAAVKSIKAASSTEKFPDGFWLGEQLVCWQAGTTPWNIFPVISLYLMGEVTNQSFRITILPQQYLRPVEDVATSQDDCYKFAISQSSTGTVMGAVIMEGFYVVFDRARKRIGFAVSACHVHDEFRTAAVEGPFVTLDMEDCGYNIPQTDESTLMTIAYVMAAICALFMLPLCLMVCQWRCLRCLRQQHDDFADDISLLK
Experiment: Inhibition of recombinant human BACE1 in human SH-SY5Y cells using fluorogenic 7-methoxycoumarin-4-yl)acetyl-Ser-Glu-Val-Asn-Leu-Asp-Ala-Glu-Phe-ArgLys(2, 4-dinitrophenyl)-Arg-Arg-NH2 as substrate measured every 5 mins for 120 mins by WCA
Assay type: cell-based
pIC50 by entry:
Conceptually, pIC50 converts a concentration in mol/L into minus its log10.

COMPOUND	pIC50
Cn1cc(CN(C(=O)CCCN2C(N)=Nc3ccc(Oc4ccccc4)cc3C2CC2CCCCC2)C2CCCCC2)cn1 (configuration not stated)	6.85

Attention now shifts to the item below.
query: What value of measured pIC50 is listed for CC1c2cc(Oc3ccccc3)ccc2N=C(N)N1CCCC(=O)N(Cc1cnn(C)c1)C1CCCCC1 (configuration not stated) ?
result: 6.85

* * *

Biological target: Cyclin-dependent kinase 2 (Homo sapiens, UniProt P24941)
ENDPOINT: IC50 (µM)
The response must be a number in µM with no trailing unit.

query: Requested read-out IC50, target or system Cyclin-dependent kinase 2 (Homo sapiens, UniProt P24941), entry COC(=N)c1nc2ccc3ncnc(Nc4ccc(Cl)cc4Cl)c3c2s1
result: 0.0888

* * *

Biological target: Acetylcholinesterase (Electrophorus electricus)
Sequence (O42275 whole entry): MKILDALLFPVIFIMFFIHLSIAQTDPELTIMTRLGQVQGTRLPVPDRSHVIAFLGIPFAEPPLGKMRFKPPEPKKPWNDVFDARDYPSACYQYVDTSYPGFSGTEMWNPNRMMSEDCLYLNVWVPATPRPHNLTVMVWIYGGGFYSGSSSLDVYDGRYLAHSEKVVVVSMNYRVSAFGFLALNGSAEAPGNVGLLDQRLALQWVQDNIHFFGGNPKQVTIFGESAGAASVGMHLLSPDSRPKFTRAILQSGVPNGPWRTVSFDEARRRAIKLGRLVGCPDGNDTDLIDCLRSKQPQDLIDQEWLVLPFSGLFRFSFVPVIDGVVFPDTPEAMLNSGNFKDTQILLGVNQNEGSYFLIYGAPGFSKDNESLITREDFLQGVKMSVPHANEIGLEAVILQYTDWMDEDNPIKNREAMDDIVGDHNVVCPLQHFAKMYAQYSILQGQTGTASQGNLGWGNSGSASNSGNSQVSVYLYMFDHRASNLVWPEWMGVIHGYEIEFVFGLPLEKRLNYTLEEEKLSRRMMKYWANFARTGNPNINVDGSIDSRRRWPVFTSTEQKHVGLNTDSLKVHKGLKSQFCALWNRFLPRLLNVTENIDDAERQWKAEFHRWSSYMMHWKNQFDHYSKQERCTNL
Assay: Inhibition of electric eel AChE incubated for 25 mins by Ellman's method
ENDPOINT: IC50 (µM)
The response must be a number in µM with no trailing unit.

query: What value of measured IC50 is listed for Cc1ccccc1-n1c(SCC(=O)N/N=C/c2ccc(Br)cc2)nc2ccccc2c1=O ?
result: 210

* * *

pIC50 by entry:
Experiment: Inhibition of Kainate receptor (unknown origin)
Design: species or system Homo sapiens
Conceptually, pIC50 converts a concentration in mol/L into minus its log10.

STRUCTURE_SMILES	pIC50
O=Cc1ccn(-c2cc3c(cc2Cl)nc(O)n2nc(C(=O)O)cc32)c1	5.29

query: What value of measured pIC50 is listed for O=C(O)c1cc2c3cc(-n4cnnc4)c(Cl)cc3[nH]c(=O)n2n1 ?
result: 5.26

* * *

Target: 3',5'-cyclic-AMP phosphodiesterase 4D (Homo sapiens, UniProt Q08499)
Sequence (Q08499 whole entry): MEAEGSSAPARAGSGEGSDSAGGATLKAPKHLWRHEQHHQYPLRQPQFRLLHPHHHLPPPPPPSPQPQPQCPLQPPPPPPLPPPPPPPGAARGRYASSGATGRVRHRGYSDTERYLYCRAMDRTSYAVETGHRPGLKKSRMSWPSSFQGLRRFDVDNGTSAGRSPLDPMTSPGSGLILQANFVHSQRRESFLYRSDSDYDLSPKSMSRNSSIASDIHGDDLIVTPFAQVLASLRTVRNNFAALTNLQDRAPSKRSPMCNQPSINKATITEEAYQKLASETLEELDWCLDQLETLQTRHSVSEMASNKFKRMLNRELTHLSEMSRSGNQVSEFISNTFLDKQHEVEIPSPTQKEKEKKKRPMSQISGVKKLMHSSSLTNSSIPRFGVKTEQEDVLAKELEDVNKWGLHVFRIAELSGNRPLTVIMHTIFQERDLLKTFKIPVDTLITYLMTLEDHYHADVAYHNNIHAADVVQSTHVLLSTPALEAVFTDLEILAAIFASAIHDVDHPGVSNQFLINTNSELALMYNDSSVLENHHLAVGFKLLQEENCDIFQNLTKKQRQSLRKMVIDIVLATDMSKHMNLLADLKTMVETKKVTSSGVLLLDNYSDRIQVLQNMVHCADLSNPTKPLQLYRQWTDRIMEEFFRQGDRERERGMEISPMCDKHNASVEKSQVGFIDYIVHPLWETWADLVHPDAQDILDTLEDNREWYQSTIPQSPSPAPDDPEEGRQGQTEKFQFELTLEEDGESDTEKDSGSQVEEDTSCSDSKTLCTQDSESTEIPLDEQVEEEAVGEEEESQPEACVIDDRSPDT
ENDPOINT: pIC50
Conceptually, pIC50 converts a concentration in mol/L into minus its log10.

query: What value of measured pIC50 is listed for CSc1nc2ccccc2c(=O)n1-c1c(F)cccc1F ?
result: 5.46

* * *

pIC50 by entry:
Target: Acetylcholinesterase (Homo sapiens)
Assay: Inhibition of human AChE
Conceptually, pIC50 converts a concentration in mol/L into minus its log10.

Worked cases, answers included:
STRUCTURE_SMILES	MEASURED_ON	pIC50
c1cc2c(cc1OCCCN1CCCCC1)CN1CCCCCC1=N2	Acetylcholinesterase (Homo sapiens)	6.09
c1ccc2c(c1)CCCN1Cc3cc(OCCCN4CCCCC4)ccc3N=C21	Acetylcholinesterase (Homo sapiens)	6.27
c1cc2c(cc1OCCCN1CCCCC1)CN1CCCC1=N2	Acetylcholinesterase (Homo sapiens)	5.96
c1ccc2c(c1)CCN1Cc3cc(OCCCN4CCCCC4)ccc3N=C21	Acetylcholinesterase (Homo sapiens)	6.67
c1ccc2c(c1)CN1Cc3cc(OCCCN4CCCCC4)ccc3N=C21	Acetylcholinesterase (Homo sapiens)	6.85

Attention now shifts to the item below.
query: What value of measured pIC50 is listed for c1cc2c(cc1OCCCN1CCCCC1)CN1CCCCC1=N2 ?
result: 6.65

* * *

Molecular target: Amyloid-beta precursor protein (Homo sapiens)
Experiment: Inhibition of amyloid beta 1 to 42 (unknown origin) […]
ENDPOINT: IC50 (µM)
The response must be a number in µM with no trailing unit.

query: What value of measured IC50 is listed for COc1cc2c(Nc3ccc(C(=O)/C=C/c4nc(C)c(C)nc4C)cc3)ncnc2c(OC)c1OC ?
result: 26.7

* * *

Biological target: UniProt P06276
Sequence (P06276 whole entry): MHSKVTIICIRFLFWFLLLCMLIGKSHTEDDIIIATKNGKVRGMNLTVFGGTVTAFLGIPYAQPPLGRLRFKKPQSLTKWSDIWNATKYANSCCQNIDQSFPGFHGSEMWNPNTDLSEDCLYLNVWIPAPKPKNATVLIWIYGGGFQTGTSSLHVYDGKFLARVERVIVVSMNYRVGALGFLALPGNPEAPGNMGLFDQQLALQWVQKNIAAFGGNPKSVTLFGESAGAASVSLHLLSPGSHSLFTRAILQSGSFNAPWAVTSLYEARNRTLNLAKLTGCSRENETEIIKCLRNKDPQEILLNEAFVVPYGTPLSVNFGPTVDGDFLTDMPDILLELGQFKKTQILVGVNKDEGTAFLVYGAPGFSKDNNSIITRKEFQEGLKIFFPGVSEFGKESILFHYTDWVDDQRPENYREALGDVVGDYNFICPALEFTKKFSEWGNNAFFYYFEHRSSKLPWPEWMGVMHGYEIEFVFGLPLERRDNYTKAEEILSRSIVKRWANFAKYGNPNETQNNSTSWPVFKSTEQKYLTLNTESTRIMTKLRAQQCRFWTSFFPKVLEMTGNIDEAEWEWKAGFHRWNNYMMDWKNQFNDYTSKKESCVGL
Assay: Inhibition of BuChE (unknown origin)
IC50 by entry:
The response must be a number in µM with no trailing unit.

MOLECULE	MEASURED_ON	IC50 / µM
O=C(CCN1CCCCC1)Nc1ccc2nc(-c3cc4ccccc4[nH]3)[nH]c(=O)c2c1	UniProt P06276	7.32
O=c1c2ccccc2nc2n1C(c1cncc3[nH]c4ccccc4c13)CC2O (stereo unspecified)	UniProt P06276	18.2
O=c1c2ccccc2nc2n1C(C1CN=Cc3[nH]c4ccccc4c31)CC2O (stereo unspecified)	UniProt P06276	9.26
O=c1c2ccccc2nc2n1CCC2	UniProt P06276	17.8

Attention now shifts to the item below.
query: What value of measured IC50 is listed for O=c1[nH]c(CCCO)nc2ccccc12 ?
result: 105

* * *

Target: UniProt:P06276
Experiment: Inhibition of BuChE (unknown origin) by Ellman's method
ENDPOINT: IC50 (µM)
The response must be a number in µM with no trailing unit.

query: What value of measured IC50 is listed for COc1cc2c(Nc3ccc(C(=O)/C=C/c4nc(C)c(C)nc4C)cc3)ncnc2c(OC)c1OC ?
result: 22.4

* * *

IC50 by entry:
Biological target: UniProt:P06276
Experiment: Inhibition of BuChE (unknown origin)
The response must be a number in µM with no trailing unit.

Worked cases, answers included:
COMPOUND	IC50 (µM)
O=c1c2ccccc2nc2n1CCC2O (stereo unspecified)	10.2
c1ccc2c(c1)CN1CCCC1=N2	0.04
CN1C(=O)C2(Nc3cc(Cl)ccc3-c3ccnn32)c2cc(Cl)ccc21 (stereo unspecified)	219

Attention now shifts to the item below.
query: What value of measured IC50 is listed for OC1CCN2Cc3ccccc3N=C12 (stereo unspecified) ?
result: 2.6

* * *

Assay: Ratio of IC50 for equine BuChE to IC50 for electric eel AChE
Binary call on Ratio IC50: Met from 2 upward, Not met beneath that.

STRUCTURE_SMILES	CATEGORY_LABEL
c1ccc2c(c1)CN1Cc3cc(OCCCN4CCCCC4)ccc3N=C21	Met
c1ccc2c(c1)CCN1Cc3cc(OCCCN4CCCCC4)ccc3N=C21	Met

query: Please indicate if the recorded Ratio IC50 for c1cc2c(cc1OCCCN1CCCCC1)CN1CCCC1=N2 meets or exceeds 2.
result: Not met

query: Please indicate if the recorded Ratio IC50 for c1ccc2c(c1)CCCN1Cc3cc(OCCCN4CCCCC4)ccc3N=C21 meets or exceeds 2.
result: Met

query: Please indicate if the recorded Ratio IC50 for c1cc2c(cc1OCCCN1CCCCC1)CN1CCCCCC1=N2 meets or exceeds 2.
result: Not met

query: Please indicate if the recorded Ratio IC50 for c1cc2c(cc1OCCCN1CCCCC1)CN1CCCCC1=N2 meets or exceeds 2.
result: Not met

* * *

Biological target: UniProt:P22303
Assay: Inhibition of AChE (unknown origin) incubated for 20 mins by TLC analysis
ENDPOINT: IC50 (µM)
The response must be a number in µM with no trailing unit.

query: What value of measured IC50 is listed for O=c1c2ccccc2nc2n1CC[C@@H]2[C@@H]1CCCN1 ?
result: 5.71

* * *

Molecular target: Acetylcholinesterase (Homo sapiens, UniProt P22303)
Sequence (P22303 whole entry): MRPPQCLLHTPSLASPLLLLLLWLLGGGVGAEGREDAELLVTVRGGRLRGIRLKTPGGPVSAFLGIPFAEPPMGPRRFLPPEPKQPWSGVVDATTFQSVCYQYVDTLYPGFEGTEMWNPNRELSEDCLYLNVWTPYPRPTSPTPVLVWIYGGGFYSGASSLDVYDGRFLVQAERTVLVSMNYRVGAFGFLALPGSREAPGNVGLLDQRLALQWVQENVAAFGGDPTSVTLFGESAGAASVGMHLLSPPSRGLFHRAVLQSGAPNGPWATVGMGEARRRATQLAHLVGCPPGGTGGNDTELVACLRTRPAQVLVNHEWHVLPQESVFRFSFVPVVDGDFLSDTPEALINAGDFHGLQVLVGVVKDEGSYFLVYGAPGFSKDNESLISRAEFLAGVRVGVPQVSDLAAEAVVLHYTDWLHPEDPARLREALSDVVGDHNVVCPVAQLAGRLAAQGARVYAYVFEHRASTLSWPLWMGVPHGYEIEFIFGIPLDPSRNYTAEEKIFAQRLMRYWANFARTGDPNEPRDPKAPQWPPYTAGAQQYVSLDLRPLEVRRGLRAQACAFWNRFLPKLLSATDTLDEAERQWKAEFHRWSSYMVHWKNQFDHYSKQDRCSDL
Test: Inhibition of AChE (unknown origin)
pIC50: −log10 of the molar value.
Binary call on pIC50: label 1 from 4 upward, label 0 beneath that.

COMPOUND	MEASURED_ON	CATEGORY_LABEL
O=c1c2ccccc2nc2n1C(c1cncc3[nH]c4ccccc4c13)CC2O (stereo not drawn)	Acetylcholinesterase (Homo sapiens, UniProt P22303)	label 1
OC1CCN2Cc3ccccc3N=C12 (stereo not drawn)	Acetylcholinesterase (Homo sapiens, UniProt P22303)	label 1
O=c1c2ccccc2nc2n1C(C1CN=Cc3[nH]c4ccccc4c31)CC2O (stereo not drawn)	Acetylcholinesterase (Homo sapiens, UniProt P22303)	label 1

query: Please indicate if the recorded pIC50 for O=c1[nH]c(CCCO)nc2ccccc12 meets or exceeds 4.
result: label 0

query: Please indicate if the recorded pIC50 for c1ccc2c(c1)CN1CCCC1=N2 meets or exceeds 4.
result: label 1

query: Please indicate if the recorded pIC50 for O=C(O)C1=Nc2ccccc2CN1 meets or exceeds 4.
result: label 0

query: Please indicate if the recorded pIC50 for O=c1c2ccccc2nc2n1CCC2O (stereo not drawn) meets or exceeds 4.
result: label 1

query: Please indicate if the recorded pIC50 for O=c1c2ccccc2nc2n1CCC2 meets or exceeds 4.
result: label 1

* * *

Biological target: Cyclin-dependent kinase 3 (Homo sapiens, UniProt Q00526)
Sequence (Q00526 whole entry): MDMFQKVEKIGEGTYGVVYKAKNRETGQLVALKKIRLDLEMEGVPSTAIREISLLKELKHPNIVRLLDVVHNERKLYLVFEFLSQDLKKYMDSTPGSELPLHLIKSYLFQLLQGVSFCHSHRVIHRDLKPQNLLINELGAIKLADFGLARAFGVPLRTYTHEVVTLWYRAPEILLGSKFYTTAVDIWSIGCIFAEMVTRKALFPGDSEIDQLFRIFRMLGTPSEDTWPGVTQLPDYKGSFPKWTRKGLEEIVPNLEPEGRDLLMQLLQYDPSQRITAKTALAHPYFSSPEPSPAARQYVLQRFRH
pIC50: −log10 of the molar value.
ENDPOINT: pIC50

query: Requested read-out pIC50, target or system Cyclin-dependent kinase 3 (Homo sapiens, UniProt Q00526), entry COC(=N)c1nc2ccc3ncnc(Nc4ccc(Cl)cc4Cl)c3c2s1
result: < 5.00

* * *

Molecular target: Casein kinase I delta/epsilon (Homo sapiens, UniProt P48730+P49674)
Sequence (P48730 whole entry): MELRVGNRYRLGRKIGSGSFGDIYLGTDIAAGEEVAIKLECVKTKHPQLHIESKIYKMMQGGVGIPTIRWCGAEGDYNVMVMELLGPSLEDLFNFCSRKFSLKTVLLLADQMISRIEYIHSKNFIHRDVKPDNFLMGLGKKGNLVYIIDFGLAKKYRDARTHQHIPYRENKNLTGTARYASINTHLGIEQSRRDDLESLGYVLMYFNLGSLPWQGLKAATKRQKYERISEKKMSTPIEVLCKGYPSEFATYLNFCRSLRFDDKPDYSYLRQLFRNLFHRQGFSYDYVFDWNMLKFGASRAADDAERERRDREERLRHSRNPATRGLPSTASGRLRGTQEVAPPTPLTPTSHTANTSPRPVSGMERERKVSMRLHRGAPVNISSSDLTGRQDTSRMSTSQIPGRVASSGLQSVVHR
Sequence (P49674 whole entry): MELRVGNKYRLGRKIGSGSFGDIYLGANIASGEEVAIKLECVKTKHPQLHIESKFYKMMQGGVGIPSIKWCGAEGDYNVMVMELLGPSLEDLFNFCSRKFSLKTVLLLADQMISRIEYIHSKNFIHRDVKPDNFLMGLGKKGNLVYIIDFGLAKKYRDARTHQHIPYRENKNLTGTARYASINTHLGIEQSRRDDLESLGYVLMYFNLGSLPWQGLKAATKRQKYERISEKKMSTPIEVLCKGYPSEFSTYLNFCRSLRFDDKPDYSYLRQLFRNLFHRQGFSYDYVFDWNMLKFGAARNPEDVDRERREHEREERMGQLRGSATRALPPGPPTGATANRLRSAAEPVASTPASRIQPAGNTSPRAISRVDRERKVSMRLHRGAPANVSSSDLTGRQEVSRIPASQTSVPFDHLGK
Assay: Inhibition of CK1delta/epsilon (unknown origin)
ENDPOINT: pIC50
Conceptually, pIC50 converts a concentration in mol/L into minus its log10.

query: Requested read-out pIC50, target or system Casein kinase I delta/epsilon (Homo sapiens, UniProt P48730+P49674), entry Nc1ncc2cc3cnccc3cc2n1
result: 6.10
